Exercise: for every item that follows, state its recorded EC50.
# systemTested: UniProtKB P21453
# Sequence (P21453 whole entry): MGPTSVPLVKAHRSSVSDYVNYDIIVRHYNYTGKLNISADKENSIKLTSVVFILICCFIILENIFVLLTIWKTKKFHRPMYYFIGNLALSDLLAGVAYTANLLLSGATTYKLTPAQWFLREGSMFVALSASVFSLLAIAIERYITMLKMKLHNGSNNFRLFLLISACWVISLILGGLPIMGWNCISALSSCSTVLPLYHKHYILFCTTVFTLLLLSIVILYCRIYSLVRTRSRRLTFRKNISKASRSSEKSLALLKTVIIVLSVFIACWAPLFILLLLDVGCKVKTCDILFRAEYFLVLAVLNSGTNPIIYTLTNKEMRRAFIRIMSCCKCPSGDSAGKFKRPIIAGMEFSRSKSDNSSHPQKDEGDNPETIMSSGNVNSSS
# assayRemarks: Receptor [35S] GTPγS binding assay, S1P1
# setupConditions: membranes from S1P1/CHO cells; synthetically prepared phosphorylated compounds
Supply the numeric figure in nM, leaving out any unit text.

query: For CCCCCCCCc1ccc(CN2CCC(N)(COP(=O)(O)O)C2=O)cc1 (stereo not shown) , write its EC50.
result: 41

query: For CCCCCCCCc1ccc(N2CCC(N)(COP(=O)(O)O)C2)cc1 (stereo not shown) [compound 20, reference compound] , write its EC50.
result: 384

query: For CCCCCCCCc1ccc(N2CCC(N)(COP(=O)(O)O)C2=O)c(C)c1 (stereo not shown) , write its EC50.
result: 161

query: For CCCCCCCCc1ccc(N2CCC(N)(COP(=O)(O)O)C2=O)cc1 (stereo not shown) , write its EC50.
result: 454

* * *

Exercise: for every item that follows, state its recorded EC50.
# systemTested: S1P3 (EDG3) (Homo sapiens (Human), UniProt Q99500)
# Sequence (Q99500 whole entry): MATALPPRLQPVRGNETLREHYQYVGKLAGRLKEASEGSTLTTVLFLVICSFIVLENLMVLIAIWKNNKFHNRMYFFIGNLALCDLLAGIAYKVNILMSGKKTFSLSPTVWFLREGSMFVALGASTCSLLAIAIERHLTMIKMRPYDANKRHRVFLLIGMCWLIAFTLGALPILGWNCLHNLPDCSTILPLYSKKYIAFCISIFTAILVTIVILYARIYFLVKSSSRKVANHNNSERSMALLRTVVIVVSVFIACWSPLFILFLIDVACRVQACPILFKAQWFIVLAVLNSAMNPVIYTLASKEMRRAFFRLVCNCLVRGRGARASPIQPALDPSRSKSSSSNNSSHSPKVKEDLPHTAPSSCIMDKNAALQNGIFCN
# assayRemarks: Receptor [35S] GTPγS binding assay, S1P3
# setupConditions: membranes from EDG3-Gal5-bla HEK293T cells; synthetically prepared phosphorylated compounds

query: For CCCCCCCCc1ccc(CN2CCC(N)(COP(=O)(O)O)C2=O)cc1 (stereo not shown) [Example 14] , write its EC50.
result: > 30 µM

query: For CCCCCCCCc1ccc(N2CCC(N)(COP(=O)(O)O)C2)cc1 (stereo not shown) [compound 20, reference compound] , write its EC50.
result: > 30 µM

query: For CCCCCCCCc1ccc(N2CCC(N)(COP(=O)(O)O)C2=O)c(C)c1 (stereo not shown) [Example 17] , write its EC50.
result: > 60 µM

query: For CCCCCCCCc1ccc(N2CCC(N)(COP(=O)(O)O)C2=O)cc1 (stereo not shown) [Example 18] , write its EC50.
result: > 60 µM
